Target: Methionyl-tRNA synthetase, putative (Trypanosoma brucei brucei)
Sequence (Q38C91 whole entry): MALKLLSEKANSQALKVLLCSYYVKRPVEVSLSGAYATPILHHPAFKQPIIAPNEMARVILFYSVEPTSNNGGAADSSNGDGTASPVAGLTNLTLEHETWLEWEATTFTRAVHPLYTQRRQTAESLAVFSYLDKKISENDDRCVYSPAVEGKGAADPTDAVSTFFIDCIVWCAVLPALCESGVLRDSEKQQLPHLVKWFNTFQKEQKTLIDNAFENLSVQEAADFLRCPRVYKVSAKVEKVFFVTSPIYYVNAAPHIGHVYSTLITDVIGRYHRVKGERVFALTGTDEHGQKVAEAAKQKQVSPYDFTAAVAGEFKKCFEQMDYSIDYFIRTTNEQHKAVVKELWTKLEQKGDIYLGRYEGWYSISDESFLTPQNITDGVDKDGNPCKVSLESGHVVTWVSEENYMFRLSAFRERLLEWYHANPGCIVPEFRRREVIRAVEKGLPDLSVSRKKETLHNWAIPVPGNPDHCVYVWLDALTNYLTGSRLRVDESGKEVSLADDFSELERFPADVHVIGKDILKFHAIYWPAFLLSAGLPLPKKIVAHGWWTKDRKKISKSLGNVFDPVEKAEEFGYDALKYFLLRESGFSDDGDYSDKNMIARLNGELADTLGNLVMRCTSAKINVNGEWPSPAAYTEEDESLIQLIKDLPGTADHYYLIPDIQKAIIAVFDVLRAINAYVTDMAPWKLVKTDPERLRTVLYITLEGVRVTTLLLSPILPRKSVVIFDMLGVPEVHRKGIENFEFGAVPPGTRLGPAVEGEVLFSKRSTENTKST
Format: functional, Trypanosoma brucei brucei strain 927/4 GUTat10.1
Active and inactive are the calls of the source.
Outcome codes: active, inactive

Compound | System Tested | Group Label
Nc1cc(Oc2ccc(Cl)cc2Cl)nc(N)n1 | Methionyl-tRNA synthetase, putative (Trypanosoma brucei brucei) | inactive
COC(=O)/C(=C\Nc1ccccc1)NC(=O)c1ccc(Cl)cc1Cl | Methionyl-tRNA synthetase, putative (Trypanosoma brucei brucei) | active
NC(=O)c1cccc(-c2ccnc3c2CC(C(=O)Nc2ccc(Cl)cc2)O3)c1 (centres undefined) | Methionyl-tRNA synthetase, putative (Trypanosoma brucei brucei) | active
CCN1C(=O)C(CC(=O)Nc2ccc(OC)cc2)N(CCc2ccccc2)C1=S (centres undefined) | Methionyl-tRNA synthetase, putative (Trypanosoma brucei brucei) | inactive

###

As a worked illustration, we turn to AC50 data collected for Cytochrome P450 2C9 (Homo sapiens).

Compound | AC50
CCc1cccc2c(C=C(C#N)C#N)cn(CC(=O)N3CCCC3)c12 | inconclusive
Cc1cccc(CNc2ccnc(-c3ccccc3CN(C)C)n2)c1 | inconclusive
Cc1cc(NC(=O)CCN2C(=O)C3C4CCC(C4)C3C2=O)c(C)cc1Br (stereo unspecified) | inconclusive
Cc1cc(C)n(C(=O)c2cc3ccccc3c(=O)o2)n1 | inconclusive
N#Cc1ccc(CN2CCCC3(CCN(C(=O)c4ccncc4)CC3)C2)cc1 | inconclusive
Cc1ccc(NC(=O)c2cccc(N(C)C)c2)cc1NC(=O)c1ccc(O)cc1 | inconclusive
O=C(O)c1cc(O)c2ccc(Cl)cc2n1 [7-CHLOROKYNURENIC ACID] | inconclusive
CN1CCCN(S(=O)(=O)c2ccc3c(c2)OCCO3)CC1 | inconclusive
O=C(Nc1ccccc1Cl)c1ccccc1Cl | inconclusive
O=C(CNC(=O)c1cccs1)NCC(=O)OCc1ccc(Cl)cc1Cl | inconclusive

###

Target: Probable nicotinate-nucleotide adenylyltransferase (Staphylococcus aureus (strain N315), UniProt P65502);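 further: confirmatory retest of primary uHTS inhibitor hits against NadD over a range of doses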
Sequence (P65502 whole entry): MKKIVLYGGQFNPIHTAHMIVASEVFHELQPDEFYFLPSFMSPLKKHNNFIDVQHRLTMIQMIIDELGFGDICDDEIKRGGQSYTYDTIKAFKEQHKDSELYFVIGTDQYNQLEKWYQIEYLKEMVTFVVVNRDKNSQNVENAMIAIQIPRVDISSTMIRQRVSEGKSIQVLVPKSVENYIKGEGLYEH
Assay type: functional, Staphylococcus aureus subsp. aureus N315
Activity calls are given as the source filed them.
Measured IC50 by item
Recorded Endpoint: IC50

Molecule | Recorded Endpoint | Result
CCc1nnc(NS(=O)(=O)c2ccc(N/C=C\C(=O)c3ccc4ccccc4c3)cc2)s1 | IC50 | 5.19 µM (active)
N#CC1=C(S)N=C(N)C(c2nc(-c3ccccc3)cs2)C12CCCC2 (stereo not given) | IC50 | 8.09 µM (active)
Cc1ccnc(NS(=O)(=O)c2ccc(NC(=O)c3cc(-c4ccc(Br)cc4)nc4ccccc34)cc2)n1 | IC50 | 7.03 µM (active)
Cc1ccccc1CSCC1Nc2ccc(C(=O)NCCc3ccccc3)cc2NC1=O (stereo not given) | IC50 | 6.55 µM (active)
O=C(Nc1ccn(CCCN(CCCn2ccc(NC(=O)OCc3ccccc3)nc2=O)CCc2cc3ccccc3[nH]2)c(=O)n1)OCc1ccccc1 | IC50 | 15.9 µM (active)

###

Biological target: UniProt:P04054
Sequence (P04054 whole entry): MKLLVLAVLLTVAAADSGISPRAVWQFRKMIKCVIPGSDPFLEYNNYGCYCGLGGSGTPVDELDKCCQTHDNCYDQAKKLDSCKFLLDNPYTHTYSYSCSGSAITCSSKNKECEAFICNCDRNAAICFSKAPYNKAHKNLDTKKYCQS
Assay type: functional
Calls of active or inactive are those of the source.
Outcome codes: t = active, f = inactive

Structure | Group Label
COc1ccc(Br)cc1CNC(=O)C1CCN(S(=O)(=O)N2CCC(C)CC2)CC1 | t
Nc1ccc2c(c1)C(=O)C(=O)c1ccccc1-2 | f
O=C(O)c1ccc(NC2=C/C(=N/S(=O)(=O)c3ccccc3)c3ccccc3C2=O)cc1 | f
Cc1cc(C=C2C(=O)c3ccccc3C2=O)c(C)n1-c1ccccc1 | t
CCc1nnc(NS(=O)(=O)c2ccc(N/C=C\C(=O)c3ccc4ccccc4c3)cc2)s1 | t

###

Target: ATP-dependent molecular chaperone HSP82 (Candida albicans (strain WO-1) (Yeast), UniProt C4YTQ8)
Sequence (C4YTQ8 whole entry): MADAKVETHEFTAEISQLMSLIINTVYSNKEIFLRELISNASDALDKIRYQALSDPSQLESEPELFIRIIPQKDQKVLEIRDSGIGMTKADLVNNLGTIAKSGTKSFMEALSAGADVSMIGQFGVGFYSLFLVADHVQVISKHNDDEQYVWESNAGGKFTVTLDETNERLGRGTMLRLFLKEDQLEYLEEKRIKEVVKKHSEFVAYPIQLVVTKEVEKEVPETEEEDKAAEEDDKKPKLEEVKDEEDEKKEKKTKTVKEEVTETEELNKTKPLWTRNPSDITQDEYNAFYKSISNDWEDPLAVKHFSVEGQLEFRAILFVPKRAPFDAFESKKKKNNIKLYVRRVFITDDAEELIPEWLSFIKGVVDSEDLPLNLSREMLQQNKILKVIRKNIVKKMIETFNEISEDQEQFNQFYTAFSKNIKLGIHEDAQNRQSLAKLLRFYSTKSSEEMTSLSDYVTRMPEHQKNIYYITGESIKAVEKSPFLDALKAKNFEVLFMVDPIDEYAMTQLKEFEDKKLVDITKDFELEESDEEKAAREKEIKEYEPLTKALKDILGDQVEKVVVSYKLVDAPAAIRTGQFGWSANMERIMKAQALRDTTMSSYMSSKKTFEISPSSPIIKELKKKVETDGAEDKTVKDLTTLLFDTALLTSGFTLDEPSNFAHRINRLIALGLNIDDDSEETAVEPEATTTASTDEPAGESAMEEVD
Assay: steroid-induced GRE reporter decrease in yeast – S. cerevisiae, luminescence, Hsp90 inhibitor project, dose response (AID 2400);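 further: beta-galactosidase luminescence from glucocorticoid response element reporter as proxy for Hsp90 function; inhibitor potency where signal loss means Hsp90 inhibition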
Assay type: functional, cell-based
Calls of active or inactive are those of the source.
Outcome codes: y = active, n = inactive

Compound | Group Label
O=C(Nc1nc2ccc(SC(F)F)cc2s1)c1ccc(NS(=O)(=O)c2ccc(F)c(F)c2)cc1 | n
CCCC(=O)NC(c1ccccc1OC)c1ccc2cccnc2c1O (centres undefined) | y
Cc1ccnc(Sc2ccc([N+](=O)[O-])cc2[N+](=O)[O-])n1 | y
CCc1cc(S)n2c(nc3ccccc32)c1C#N | n

###

Biological target: SUMO-activating enzyme (Homo sapiens, UniProt Q9UBT2)
Sequence (Q9UBE0 whole entry): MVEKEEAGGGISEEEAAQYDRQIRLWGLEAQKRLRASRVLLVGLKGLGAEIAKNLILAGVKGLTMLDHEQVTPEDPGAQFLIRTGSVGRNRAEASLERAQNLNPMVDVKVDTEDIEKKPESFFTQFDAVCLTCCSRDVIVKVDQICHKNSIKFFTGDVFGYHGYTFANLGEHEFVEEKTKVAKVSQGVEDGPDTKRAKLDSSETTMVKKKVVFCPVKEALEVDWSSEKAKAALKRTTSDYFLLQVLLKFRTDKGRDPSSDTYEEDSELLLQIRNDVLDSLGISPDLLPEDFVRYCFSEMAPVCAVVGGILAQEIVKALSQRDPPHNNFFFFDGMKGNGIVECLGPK
Sequence (Q9UBT2 whole entry): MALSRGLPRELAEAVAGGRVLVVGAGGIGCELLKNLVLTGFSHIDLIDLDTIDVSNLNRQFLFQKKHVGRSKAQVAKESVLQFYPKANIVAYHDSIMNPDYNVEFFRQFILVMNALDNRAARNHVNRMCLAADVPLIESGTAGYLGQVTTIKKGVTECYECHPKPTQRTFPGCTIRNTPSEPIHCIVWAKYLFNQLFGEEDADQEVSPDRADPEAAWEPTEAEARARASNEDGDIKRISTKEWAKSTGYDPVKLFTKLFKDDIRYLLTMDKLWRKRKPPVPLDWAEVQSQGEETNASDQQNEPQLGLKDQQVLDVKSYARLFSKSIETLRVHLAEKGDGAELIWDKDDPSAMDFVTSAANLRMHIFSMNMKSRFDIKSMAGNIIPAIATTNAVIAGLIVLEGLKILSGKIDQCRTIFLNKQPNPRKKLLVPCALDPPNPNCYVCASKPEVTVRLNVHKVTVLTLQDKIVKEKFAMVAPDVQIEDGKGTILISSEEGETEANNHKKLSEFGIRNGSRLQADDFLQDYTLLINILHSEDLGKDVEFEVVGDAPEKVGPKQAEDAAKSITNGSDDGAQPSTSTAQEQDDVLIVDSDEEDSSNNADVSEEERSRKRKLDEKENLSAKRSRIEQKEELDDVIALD
Assay: blockers of UBC9-mediated SUMO conjugation – biochemical, AlphaScreen, SUMOylation inhibitor project, confirmation (AID 2018)
Type: functional
Active and inactive are the calls of the source.
Measured IC50 by item
Recorded Endpoint: IC50

Molecule | Recorded Endpoint | Result
COc1ccc(C(=O)Nc2ccc(-c3nnn(CC(=O)NCc4ccco4)n3)cc2)cc1 | IC50 | 43.1 µM (active)
O=C(Nc1ccc2nc3ccccc3nc2c1)c1ccc(Br)cc1 | IC50 | 26.7 µM (active)
O=C(O)c1ccc2c(c1)C1C(Cl)C(Sc3ccccc3[N+](=O)[O-])CC1C(c1cccc([N+](=O)[O-])c1)N2 (stereo not given) | IC50 | 2.26 µM (active)
NS(=O)(=O)c1ccc(NC(=O)c2ccc(-c3ccccc3)cc2)cc1 | IC50 | 13.8 µM (active)
Cc1[nH][nH]c(=O)c1C(c1ccc(-c2ccc(C(=O)O)cc2)o1)c1c(C)[nH][nH]c1=O | IC50 | 3.1 µM (active)

###

Target: DNA dC->dU-editing enzyme APOBEC-3G (Homo sapiens, UniProt Q9HC16)
Sequence (Q9HC16 whole entry): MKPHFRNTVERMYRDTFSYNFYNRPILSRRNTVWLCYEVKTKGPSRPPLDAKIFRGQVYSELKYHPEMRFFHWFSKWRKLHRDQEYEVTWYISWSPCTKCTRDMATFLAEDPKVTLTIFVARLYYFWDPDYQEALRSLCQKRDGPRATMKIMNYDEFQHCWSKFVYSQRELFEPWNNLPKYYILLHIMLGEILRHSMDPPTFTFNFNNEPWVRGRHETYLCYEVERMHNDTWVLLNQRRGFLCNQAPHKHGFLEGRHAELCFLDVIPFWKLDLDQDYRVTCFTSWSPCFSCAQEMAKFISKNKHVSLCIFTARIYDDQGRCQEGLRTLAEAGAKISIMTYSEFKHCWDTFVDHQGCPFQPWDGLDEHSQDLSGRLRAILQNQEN
Assay: Dose Response confirmation of small molecule APOBEC3G DNA Deaminase Inhibitors via a fluorescence-based single-stranded DNA deaminase assay. [Related pubchem assays (depositor defined):AID493012, AID493028]
Assay type: functional
Activity calls are given as the source filed them.

Molecule | IC50
COC(=O)C(C)Sc1nnc(S)s1 (stereo not given) | 15.8 µM (active)
CCn1c(O)nc(CS(=O)(=O)c2ccccc2)c1C | 6.9 µM (active)
Cc1c(N2C(=O)/C(=C\c3ccccc3O)SC2=S)c(=O)n(-c2ccccc2)n1C | 46.2 µM (active)
CCSc1nnc(S)s1 | 7.81 µM (active)
Cc1cc(-c2nnc(S)n2CC(C)C)cs1 | 5.87 µM (active)

###

Target: Induced myeloid leukemia cell differentiation protein Mcl-1 (Homo sapiens, UniProt Q07820)
Sequence (Q07820 whole entry): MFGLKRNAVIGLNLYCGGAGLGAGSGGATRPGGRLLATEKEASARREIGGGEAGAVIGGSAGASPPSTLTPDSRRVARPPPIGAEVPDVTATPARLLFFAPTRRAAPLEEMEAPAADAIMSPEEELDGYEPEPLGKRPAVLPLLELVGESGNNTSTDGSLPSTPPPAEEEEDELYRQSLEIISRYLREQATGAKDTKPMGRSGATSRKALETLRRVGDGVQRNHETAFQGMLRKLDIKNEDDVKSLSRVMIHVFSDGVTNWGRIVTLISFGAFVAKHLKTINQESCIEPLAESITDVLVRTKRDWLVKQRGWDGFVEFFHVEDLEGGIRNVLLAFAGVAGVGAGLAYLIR
Format: functional
Active and inactive are the calls of the source.
Recorded Endpoint: IC50

Structure | System Tested | Result
COc1cc(-c2ccc(Nc3ccccc3C(=O)O)c(OC)c2)ccc1Nc1ccccc1C(=O)O | Induced myeloid leukemia cell differentiation protein Mcl-1 (Homo sapiens, UniProt Q07820) | 1.52 µM (active)
O=C(O)c1ccc(NC2=C/C(=N/S(=O)(=O)c3ccccc3)c3ccccc3C2=O)cc1 | Induced myeloid leukemia cell differentiation protein Mcl-1 (Homo sapiens, UniProt Q07820) | 1.65 µM (active)
O=[N+]([O-])c1ccc(-c2cc(O)n3nc(-c4ccc(Cl)cc4)cc3n2)cc1 | Induced myeloid leukemia cell differentiation protein Mcl-1 (Homo sapiens, UniProt Q07820) | 1.72 µM (active)
Cc1cccc(C(=O)NC(=S)NNC(=O)c2ccc(Cl)cc2)c1 | Induced myeloid leukemia cell differentiation protein Mcl-1 (Homo sapiens, UniProt Q07820) | 25.8 µM (not active)
CC(C)c1nc2sc3c(=O)[nH]c(=S)[nH]c3c2c2c1CCC2 | Induced myeloid leukemia cell differentiation protein Mcl-1 (Homo sapiens, UniProt Q07820) | < 0.4 µM (active)
